# target.entity: Solute carrier organic anion transporter family member 1B1 (Homo sapiens)
# Sequence (Q9Y6L6 whole entry): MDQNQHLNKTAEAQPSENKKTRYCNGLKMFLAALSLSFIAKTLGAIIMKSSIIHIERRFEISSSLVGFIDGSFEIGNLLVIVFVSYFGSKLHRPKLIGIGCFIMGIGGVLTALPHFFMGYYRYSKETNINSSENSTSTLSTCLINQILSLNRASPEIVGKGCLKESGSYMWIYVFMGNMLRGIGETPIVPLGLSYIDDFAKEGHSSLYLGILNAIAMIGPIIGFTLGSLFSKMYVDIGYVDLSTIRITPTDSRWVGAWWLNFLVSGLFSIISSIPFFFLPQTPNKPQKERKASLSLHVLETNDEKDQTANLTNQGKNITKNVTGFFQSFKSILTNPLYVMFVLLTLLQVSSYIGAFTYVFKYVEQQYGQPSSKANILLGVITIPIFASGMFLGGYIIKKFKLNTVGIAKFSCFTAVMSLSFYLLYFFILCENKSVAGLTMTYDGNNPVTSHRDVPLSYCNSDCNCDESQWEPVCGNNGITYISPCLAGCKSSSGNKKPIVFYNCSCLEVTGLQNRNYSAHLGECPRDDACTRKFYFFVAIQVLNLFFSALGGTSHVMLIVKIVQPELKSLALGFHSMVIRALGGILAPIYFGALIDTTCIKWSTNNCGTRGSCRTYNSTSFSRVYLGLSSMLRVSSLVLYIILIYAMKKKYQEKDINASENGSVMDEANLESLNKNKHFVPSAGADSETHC
# run.conditions: chinese hamster, cho, 10 µM
measured.property: residual activity

[
  {
    "compound": "C[C@H](CCC(=O)O)[C@H]1CC[C@H]2[C@@H]3CC[C@@H]4C[C@H](O)CC[C@]4(C)[C@H]3CC[C@]12C",
    "target.entity": "Solute carrier organic anion transporter family member 1B1 (Homo sapiens)",
    "residual activity": "6.612%"
  }
]

The compound CS(=O)(=O)O.OC(CCN1CCCCC1)(c1ccccc1)c1ccccc1 [PRIDINOL METHANESULFONATE] showed residual activity equal to 95.92%

Record `COc1cccc(OC)c1C(=O)N[C@@H]1C(=O)N2[C@@H]1SC(C)(C)[C@@H]2C(=O)[O-].[Na+]` , field residual activity: 68.38%

// recorded residual activity for `Oc1cccc(O)c1` : 89.71%
